Test system: NCI-H522 lung
Protocol Description: NCI-60 one-dose screen, 48 h
Condition Summary: 10 µM unless noted
This is part of a sample that, as a whole, favours compounds with a hit. Of some 83,000 tested, about 20% had one in any assay. Activity calls are given as the source filed them. The calls were made as follows: active = growth percent below 10; inactive = the rest.
Field 'call' accepts T (active), F (inactive)

Take a look at these entries with their results.
COc1cc(-c2nc(SCCC(C)C)nc(Nc3ccccc3)c2C#N)cc(OC)c1OC | F
Cc1cccc(/C=C2\N=C(c3ccccc3)N(c3ccc(S(N)(=O)=O)cc3)C2=O)c1 | F
CNC(=O)c1cc(Oc2ccc3nc(NC(=O)c4ccc5ncccc5c4)sc3c2)ccn1 | F
C=C(C)[C@@H]1CC[C@]2(C(=O)O)CC[C@]3(C)[C@H](CC[C@@H]4[C@@]5(C)C/C(=C/c6ccco6)C(=O)C(C)(C)[C@@H]5CC[C@]43C)[C@@H]12 | T

q: // param item: `CCOc1ccc2sc(NS(=O)(=O)c3ccc(N)cc3)nc2c1` ; yields the recorded call
a: F

q: What do you have for `CCOC(=O)COc1ccc2c(c1)O/C(=C\c1ccc(O)cc1)C2=O` ?
a: F

q: Now the same for `COc1ccc(NCc2cn(-c3ccc(C(=O)O)cc3)nc2-c2ccc(C(=O)O)cc2)cc1C(F)(F)F`
a: F

q: And then `O=C1COCCN1c1ccc(NCc2cn(Cc3ccc(F)cc3)c3ccccc23)cc1` , what is it?
a: F

q: Note, next up: C=C(C)C1CCC2(C(=O)O)CCC3(C)C(CCC4C5(C)CCC(OC(=O)NCc6ccccc6)C(C)(C)C5CCC43C)C12 (centres undefined)
a: T
